Tested on: Cell-associated proTGFb1 (hGARP, hLRRC33)
assay.protocol: BLI (OCTET), average over cell-associated complexes
Assay type: binding, human
applied.conditions: average KD of (E) and (F), read-out: (G) Cell AVRG
From the text: Column (A) of the table lists monoclonal antibodies with discrete amino acid sequences. […] Columns (B), (D), (E) and (F) provide affinities of each of the listed antibodies, measured in KD. […] Finally, relative ratios between the average KD values from columns (D) and (G) are expressed as “fold bias” in column (H). […] This is one way of quantitatively representing and comparing inherent bias of antibodies to their target complexes. […]

molecule	Kd
Ab33: proTGFβ1 antibody; VH SEQ ID NO: 141, VL SEQ ID NO: 15 (antibody, V domains shown) VH: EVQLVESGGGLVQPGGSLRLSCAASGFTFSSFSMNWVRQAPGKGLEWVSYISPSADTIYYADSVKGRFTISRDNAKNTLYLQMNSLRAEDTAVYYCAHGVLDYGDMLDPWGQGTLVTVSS VL: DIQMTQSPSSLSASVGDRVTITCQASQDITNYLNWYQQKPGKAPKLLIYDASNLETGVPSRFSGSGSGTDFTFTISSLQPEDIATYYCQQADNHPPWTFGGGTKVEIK	0.302 nM
